B1: HDV Ribozyme (parent)
chain: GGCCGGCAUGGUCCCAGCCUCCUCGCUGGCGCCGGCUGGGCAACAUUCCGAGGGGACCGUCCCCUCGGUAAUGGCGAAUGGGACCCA

Variants of: B1
Experiment: self-cleavage, relative activity (ratio to wild type); higher = more cleavage; co-transcriptional
readout.label: self-cleavage
# answer = number (no unit)

G55A U79C : 0.511
C32U G40A : 0.987
G81U : 0.365

The reported value for A43C U47A in terms of self-cleavage is 0.506

Looking up G54A G67U , I see its self-cleavage listed as 0.657

self-cleavage for G59U C63U is 1.04

variant G35C A51G , self-cleavage observed: 0.415

Just so you know, measured self-cleavage for C13U C22A came out at 0.124

Data point: G17U G40C ; self-cleavage = 0.189

// self-cleavage value for A56U C57A : 0.966

According to the records, this variant C24U C84U displays self-cleavage of 0.53

Lab note: measured self-cleavage of G2A G39A was 0.0171
